- Tested on: HPV-16
- Assay text: qPCR sensitivity against HPV-HNSCC tumor samples diluted among 10 ng normal human DNA
- Protocol conditions: Sample # 13
Metric: Threshold of tumor cell numbers for HPV-16 detection (tumor cells)
Provide the reading as a plain figure in tumor cells.

Bench note: what Threshold of tumor cell numbers for HPV-16 detection did BR E6-1: HPV-16 E6 region (172-373 bp) primer/probe set, SEQ ID NO: 58-60 (nucleic acid, chemistry not given here) DNA 1: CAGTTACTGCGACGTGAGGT DNA 2: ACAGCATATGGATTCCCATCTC DNA 3: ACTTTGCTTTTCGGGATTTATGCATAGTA show?
60.0

Thanks! And BR E1-4: HPV-16 E1 region primer/probe set, SEQ ID NO: 37-39 (nucleic acid, chemistry not given here) DNA 1: ATGCACAATTGGCAGACACTA DNA 2: ACAATCCTTTACAATTTTTGCCTGT DNA 3: TAATGCAAGTGCCTTTCTAAAAAGT ?
6.0
